assay: Pharmacokinetic screening in rats, brain and plasma concentrations at 6 hour time point; assay type: in vivo; conditions: male, Sprague Dawley, plasma; rat, 5 mg/kg oral (PO), 2% Tween 80 in distilled water, 6 hour time point; read-out: Plasma concentration
Structures can show the parent of a compound that is named as a salt.
Classify by measured concentration at 6 h: Y if it is equal to or exceeds 100 ng/mL, N if it is smaller.

{"compound": "CCCCc1nc(-c2ccc(OC[C@H](O)CN(CC)CC)cc2)cn1-c1ccc(Oc2ccc(Cl)cc2)cc1 [Example 2, dihydrochloride]", "label value": "N"}
{"compound": "CCOCc1nc(-c2ccc(OC[C@@H](O)CN(CC)CC)cc2)cn1-c1ccc(Oc2ccc(Cl)cc2)cc1 [Example 8, dihydrochloride]", "label value": "Y"}
{"compound": "CCOCc1nc(-c2ccc(OC[C@H](O)CN(CC)CC)cc2)cn1-c1ccc(Oc2ccc(Cl)cc2)cc1 [Example 7, dihydrochloride]", "label value": "Y"}
{"compound": "CCCCc1nc(-c2ccc(OC[C@@H](O)CN(CC)CC)cc2)cn1-c1ccc(Oc2ccc(Cl)cc2)cc1 [Example 4, dihydrochloride]", "label value": "N"}
{"compound": "CCOCc1nc(-c2ccc(OC[C@H](O)CN(C)C)cc2)cn1-c1ccc(Oc2ccc(Cl)cc2)cc1 [Example 5, dihydrochloride]", "label value": "Y"}
{"compound": "CCCCc1nc(-c2ccc(OC[C@H](O)CNC)cc2)cn1-c1ccc(Oc2ccc(Cl)cc2)cc1 [Example 9, dihydrochloride]", "label value": "N"}

Origin of measurements: patent US8580833B2
